testSystem: NO synthase (Rattus norvegicus, UniProt P29476)
Construct: the supernatant was then removed by decantation and frozen in portions at −80° C; from tissue; host or cells: rat cerebellum, 20,000 g supernatant of homogenate
assayNotes: HTS-NOS assay (NOS assay): conversion of radioactive arginine, cation-exchanger filter plate
Format: biochemical
experimentalParameters: read-out: HTS-NOS assay: % inhibition (10 μM)
measuredProperty: inhibition at 10 µM (%)

INSERT INTO measurements (linenotation, testsystem, recordedmeasurement) VALUES
  ('CCCCNc1c(C2CCCCC2)nc2cc(C)cc(C)n12', 'NO synthase (Rattus norvegicus, UniProt P29476)', 58),
  ('CC(=O)N(c1c(-c2cccc(Oc3ccc(Cl)cc3)c2)nc2ccccn12)C1CCCCC1', 'NO synthase (Rattus norvegicus, UniProt P29476)', 51),
  ('Cc1ccn2c(NC(C)(C)CC(C)(C)C)c(-c3ccc(Cl)cc3Cl)nc2c1', 'NO synthase (Rattus norvegicus, UniProt P29476)', 61),
  ('Cc1cccn2c(NC3CCCCC3)c(-c3ccco3)nc12', 'NO synthase (Rattus norvegicus, UniProt P29476)', 53),
  ('CCCCNc1c(-c2ccc(N(C)C)c3ccccc23)nc2cnccn12', 'NO synthase (Rattus norvegicus, UniProt P29476)', 56),
  ('CCCCNc1c(-c2cccc(O)c2)nc2cc(C)ccn12', 'NO synthase (Rattus norvegicus, UniProt P29476)', 63),
  ('COc1ccccc1-c1nc2cc(C)ccn2c1N(C(C)=O)c1c(C)cccc1C', 'NO synthase (Rattus norvegicus, UniProt P29476)', 51),
  ('Cc1cc(C)n2c(NC(C)(C)CC(C)(C)C)c(-c3cccc(O)c3)nc2c1', 'NO synthase (Rattus norvegicus, UniProt P29476)', 60),
  ('CC(=O)N(c1c(C2CCCCC2)nc2cc(C)cc(C)n12)C(C)(C)C', 'NO synthase (Rattus norvegicus, UniProt P29476)', 63);

###

testSystem: NO synthase (Rattus norvegicus)
Construct: the supernatant was then removed by decantation and frozen in portions at −80° C; from tissue; host or cells: rat cerebellum, 20,000 g supernatant of homogenate
assayNotes: HTS-NOS assay (NOS assay): conversion of radioactive arginine, cation-exchanger filter plate
Assay type: biochemical
experimentalParameters: Table 5; concentration not given
measuredProperty: NOS assay % inhibition (%)

INSERT INTO results (linenotation, testsystem, resultunit, recordedmeasurement) VALUES
  ('Cc1ccn2c(NCc3ccccc3)c(-c3ccsc3)nc2c1.Cl', 'NO synthase (Rattus norvegicus)', '%', 45),
  ('Cc1cc(C)n2c(NC3CCCC3)c(-c3ccc(-c4ccc(Cl)cc4)o3)nc2c1.Cl', 'NO synthase (Rattus norvegicus)', '%', 73),
  ('Cc1cc(C)n2c(NC(C)(C)CC(C)(C)C)c(-c3ccsc3)nc2c1.Cl', 'NO synthase (Rattus norvegicus)', '%', 74),
  ('Cc1ccn2c(NC(C)(C)CC(C)(C)C)c(-c3ccoc3)nc2c1.Cl', 'NO synthase (Rattus norvegicus)', '%', 45),
  ('Cc1cc(C)n2c(NC(C)(C)CC(C)(C)C)c(-c3ccoc3)nc2c1.Cl', 'NO synthase (Rattus norvegicus)', '%', 50),
  ('Cc1cc(C)n2c(NC3CCCC3)c(-c3ccc(-c4ccccc4[N+](=O)[O-])o3)nc2c1.Cl', 'NO synthase (Rattus norvegicus)', '%', 55),
  ('Cc1cc(C)n2c(NC3CCCC3)c(-c3ccoc3)nc2c1.Cl', 'NO synthase (Rattus norvegicus)', '%', 57),
  ('Cc1cc(C)n2c(NC3CCCC3)c(-c3ccc(Br)cc3F)nc2c1.Cl', 'NO synthase (Rattus norvegicus)', '%', 56);

###

testSystem: NO synthase (Rattus norvegicus, UniProt P29476)
Construct: the supernatant was then removed by decantation and frozen in portions at −80° C; from tissue; host or cells: rat cerebellum, 20,000 g supernatant of homogenate
assayNotes: HTS-NOS assay (NOS assay): conversion of radioactive arginine, cation-exchanger filter plate
Format: biochemical
experimentalParameters: read-out: HTS-NOS assay: % inhibition (10 μM)
measuredProperty: inhibition at 10 µM (%)

INSERT INTO assay_data (linenotation, measuredproperty, recordedmeasurement) VALUES
  ('CC(=O)N(c1c(-c2ccc(Cl)cc2Cl)nc2cccc(C)n12)C1CCCCC1', 'inhibition at 10 µM', 64),
  ('CC(=O)N(c1c(-c2ccc(C)s2)nc2ncccn12)C(C)(C)C', 'inhibition at 10 µM', 53),
  ('Cc1ccn2c(NC3CCCCC3)c(-c3ccc([N+](=O)[O-])o3)nc2c1', 'inhibition at 10 µM', 66),
  ('Cc1cccn2c(NC(C)(C)C)c(-c3ccccn3)nc12', 'inhibition at 10 µM', 56),
  ('Cc1cc(C)n2c(NC(C)(C)CC(C)(C)C)c(-c3ccccc3C)nc2c1', 'inhibition at 10 µM', 60),
  ('Cc1cccn2c(NC3CCCCC3)c(-c3ccncc3)nc12', 'inhibition at 10 µM', 52),
  ('Cc1ccn2c(NC3CCCCC3)c(-c3cc(C)c(C)o3)nc2c1', 'inhibition at 10 µM', 65),
  ('CC(=O)N(c1c(C)cccc1C)c1c(-c2cc3ccccc3o2)nc2cc(C)ccn12', 'inhibition at 10 µM', 52),
  ('CC(=O)N(c1c(-c2ccc(C(=O)O)o2)nc2cc(C)cc(C)n12)C(C)(C)CC(C)(C)C', 'inhibition at 10 µM', 60),
  ('CC(=O)N(c1c(-c2ccc(C)o2)nc2cc(C)cc(C)n12)C1CCCCC1', 'inhibition at 10 µM', 65),
  ('Cc1cccn2c(NC(C)(C)CC(C)(C)C)c(-c3cccc(Cl)c3Cl)nc12', 'inhibition at 10 µM', 52),
  ('CC(=O)N(c1c(C)cccc1C)c1c(-c2cc3ccccc3o2)nc2cc(C)cc(C)n12', 'inhibition at 10 µM', 63),
  ('CC(=O)N(c1c(-c2ccc([N+](=O)[O-])o2)nc2cc(C)ccn12)C1CCCCC1', 'inhibition at 10 µM', 64),
  ('CC(=O)N(c1c(C2CCCCC2)nc2cc(C)cc(C)n12)C(C)(C)CC(C)(C)C', 'inhibition at 10 µM', 62),
  ('CC(=O)N(c1c(-c2ccc(C(=O)O)s2)nc2cnccn12)C(C)(C)C', 'inhibition at 10 µM', 78),
  ('COC(=O)CN(C(C)=O)c1c(-c2cccc(O)c2)nc2ccc(C)cn12', 'inhibition at 10 µM', 50),
  ('CC(=O)N(c1c(-c2ccc(Cl)cc2Cl)nc2cc(C)cc(C)n12)C(C)(C)CC(C)(C)C', 'inhibition at 10 µM', 67);

###

testSystem: NO synthase (Rattus norvegicus)
Construct: the supernatant was then removed by decantation and frozen in portions at −80° C; from tissue; host or cells: rat cerebellum, 20,000 g supernatant of homogenate
assayNotes: HTS-NOS assay (NOS assay): conversion of radioactive arginine, cation-exchanger filter plate
Format: biochemical
experimentalParameters: read-out: HTS-NOS assay: % inhibition (10 μM)
measuredProperty: inhibition at 10 µM (%)

INSERT INTO measurements (molecule, resultunit, recordedmeasurement) VALUES
  ('CC(=O)N(c1c(-c2ccc(Br)o2)nc2c(C)cccn12)C(C)(C)CC(C)(C)C', '%', 51),
  ('Cc1cc(C)n2c(Nc3c(C)cccc3C)c(-c3cc4ccccc4o3)nc2c1', '%', 57),
  ('O=[N+]([O-])c1cccc2cn[nH]c12 [7-nitroindazole, reference compound]', '%', 50),
  ('Cc1cc(C)n2c(Nc3c(C)cccc3C)c(-c3cccc(Cl)c3Cl)nc2c1', '%', 61),
  ('COC(=O)CN(C(C)=O)c1c(-c2ccccc2C)nc2cnccn12', '%', 50);

###

testSystem: NO synthase (Rattus norvegicus)
Construct: the supernatant was then removed by decantation and frozen in portions at −80° C; from tissue; host or cells: rat cerebellum, 20,000 g supernatant of homogenate
assayNotes: HTS-NOS assay (NOS assay): conversion of radioactive arginine, cation-exchanger filter plate
Assay type: biochemical
experimentalParameters: read-out: HTS-NOS assay: % inhibition (10 μM)
measuredProperty: inhibition at 10 µM (%)

INSERT INTO results (linenotation, measuredproperty, resultunit, recordedmeasurement) VALUES
  ('CC(=O)N(c1c(-c2cc3ccccc3o2)nc2cc(C)ccn12)C(C)(C)CC(C)(C)C', 'inhibition at 10 µM', '%', 50),
  ('COc1cccc(-c2nc3cc(C)cc(C)n3c2Nc2c(C)cccc2C)c1OC', 'inhibition at 10 µM', '%', 68),
  ('Cc1cc(C)n2c(NC(C)(C)C)c(-c3ccc(C(=O)O)o3)nc2c1', 'inhibition at 10 µM', '%', 56),
  ('Cc1ccn2c(Nc3c(C)cccc3C)c(-c3cc4ccccc4o3)nc2c1', 'inhibition at 10 µM', '%', 53),
  ('COc1ccc(-c2nc3cc(C)ccn3c2N(C(C)=O)c2c(C)cccc2C)cc1OC', 'inhibition at 10 µM', '%', 51),
  ('Cc1cc(C)n2c(NC(C)(C)C)c(C)nc2c1', 'inhibition at 10 µM', '%', 67),
  ('Cc1cccn2c(NC(C)(C)CC(C)(C)C)c(-c3cc4ccccc4o3)nc12', 'inhibition at 10 µM', '%', 59),
  ('COc1ccccc1-c1nc2cc(C)cc(C)n2c1Nc1c(C)cccc1C', 'inhibition at 10 µM', '%', 66),
  ('Cc1ccn2c(NC(C)(C)CC(C)(C)C)c(-c3cccnc3)nc2n1', 'inhibition at 10 µM', '%', 50);
